test system: Vibrio percolans; test: Standard disc-plate method, zone of inhibition; format: cell-based; conditions: Comamonas terrigena, 25 microgram discs
property: zone of inhibition at 25 µg/disc (mm)
Report only the number, with the unit mm understood.

Worked cases, answers included:
CCN1CCN(C(=O)N[C@@H](C(=O)NC2C(=O)N3C(C(=O)OCOC(=O)C(C)(C)C)=C(C)C(=O)C23)c2ccccc2)C(=O)C1=O (some centres unmarked) [EPA H POM CH3 O II]	20
CC(=O)OC1C(C)=C(C(=O)O)N2C(=O)CC12 (centres unmarked) [H H H CH3 H OAc II]	18
CC1=C(C(=O)OCOC(=O)C(C)(C)C)N2C(=O)C(NC(=O)c3c(-c4ccccc4)noc3C)C2C1=O (centres unmarked) [MPI H POM CH3 O II]	0
CCN1CCN(C(=O)N[C@@H](C(=O)NC2C(=O)N3C(C(=O)O)C(C)C(O)C23)c2ccccc2)C(=O)C1=O (some centres unmarked) [EPA H H CH3 H OH I]	25
CCN1CCN(C(=O)N[C@@H](C(=O)NC2C(=O)N3C(C(=O)OCOC(=O)C(C)(C)C)C(C)C(O)C23)c2ccccc2)C(=O)C1=O (some centres unmarked) [EPA H POM CH3 H OH I]	24

Entry CC1=C(C(=O)OCOC(=O)C(C)(C)C)N2C(=O)CC2C1=O (centres unmarked) [H H POM CH3 O II] — recorded zone of inhibition at 25 µg/disc = 14

Entry CC(=O)OC(C)C1C(=O)N2C(C(=O)O)=C(C)C(O)C12 (centres unmarked) [AET H H CH3 H OH I] — recorded zone of inhibition at 25 µg/disc = 16

Entry COC1(NC(=O)COc2ccccc2)C(=O)N2C(C(=O)OCOC(=O)C(C)(C)C)C(C)C(O)C21 (centres unmarked) [PMA OMe POM CH3 H OH I] — recorded zone of inhibition at 25 µg/disc = 0

Entry COC1(NC(=O)COc2ccccc2)C(=O)N2C(C(=O)OCOC(=O)C(C)(C)C)=C(C)C(=O)C21 (centres unmarked) [PMA OMe POM CH3 O II] — recorded zone of inhibition at 25 µg/disc = 0

Entry CC(=O)OC(C)C1C(=O)N2C(C(=O)O)=C(C)C(OC(C)=O)C12 (centres unmarked) [AET H H CH3 H OAc I] — recorded zone of inhibition at 25 µg/disc = 10

Entry COC1(NC(=O)COc2ccccc2)C(=O)N2C(C(=O)OCOC(=O)C(C)(C)C)C(C)C(=O)C21 (centres unmarked) [PMA OMe POM CH3 O I] — recorded zone of inhibition at 25 µg/disc = 0

Entry Cc1onc(-c2ccccc2)c1C(=O)NC1C(=O)N2C(C(=O)OCOC(=O)C(C)(C)C)C(C)C(O)C12 (centres unmarked) [MPI H POM CH3 H OH I] — recorded zone of inhibition at 25 µg/disc = 13

Entry Cc1onc(-c2ccccc2)c1C(=O)NC1C(=O)N2C(C(=O)OCOC(=O)C(C)(C)C)C(C)C(=O)C12 (centres unmarked) [MPI H POM CH3 O I] — recorded zone of inhibition at 25 µg/disc = 0

Entry CCN1CCN(C(=O)N[C@@H](C(=O)NC2C(=O)N3C(C(=O)OCOC(=O)C(C)(C)C)C(C)C(=O)C23)c2ccccc2)C(=O)C1=O (some centres unmarked) [EPA H POM CH3 O I] — recorded zone of inhibition at 25 µg/disc = 21

# credit: patent US4348264A
